All figures here come from ChEMBL document CHEMBL1129328.

Target: Glutamate receptor ionotropic, kainate
Experiment: Binding affinity at Ionotropic glutamate receptor kainate in rat cortical tissue by [3H]-kainic acid displacement.
experimental-readout: IC50 (µM)
# number only, unit µM dropped from output

[
  {
    "compound": "O=C(O)[C@@H]1C[C@H]2C[C@@H](OCc3nn[nH]n3)CC[C@H]2CN1",
    "IC50 [µM]": 55
  }
]

Next up:
Task: Quick check: IC50 of CC(Cc1nnn[nH]1)[C@H]1CC[C@H]2CN[C@H](C(=O)O)C[C@H]2C1 (stereo not given in full) ?
Result: 35

###

Target: Glutamate receptor ionotropic, AMPA (Rattus norvegicus, UniProt P19490+P19491+P19492+P19493)
Experiment: AMPA receptor antagonistic activity as inhibition of depolarizations induced by 40 uM AMPA in rat cortical slice preparation
Format: functional
Entries and their measured IC50 follow.
Numeric only. Scale: µM

Task: Entry under review: `O=C(O)[C@@H]1C[C@H]2C[C@@H](OCc3nn[nH]n3)CC[C@H]2CN1` . Reported IC50?
Result: 29.5

Task: What value of measured IC50 is listed for `O=C(O)[C@@H]1C[C@H]2C[C@@H](c3nnn[nH]3)CC[C@H]2CN1` ?
Result: 40.9
